- TEST SYSTEM: T1, StrepII-tagged ROR1-extracellular domain (human) (human, UniProt Q01973 30-406)
- T1 construct: extracellular domain; also called ROR1-strep; soluble ROR1-strep
- T1 sequence (Q01973 other isoform, or with tags, fused parts or gaps): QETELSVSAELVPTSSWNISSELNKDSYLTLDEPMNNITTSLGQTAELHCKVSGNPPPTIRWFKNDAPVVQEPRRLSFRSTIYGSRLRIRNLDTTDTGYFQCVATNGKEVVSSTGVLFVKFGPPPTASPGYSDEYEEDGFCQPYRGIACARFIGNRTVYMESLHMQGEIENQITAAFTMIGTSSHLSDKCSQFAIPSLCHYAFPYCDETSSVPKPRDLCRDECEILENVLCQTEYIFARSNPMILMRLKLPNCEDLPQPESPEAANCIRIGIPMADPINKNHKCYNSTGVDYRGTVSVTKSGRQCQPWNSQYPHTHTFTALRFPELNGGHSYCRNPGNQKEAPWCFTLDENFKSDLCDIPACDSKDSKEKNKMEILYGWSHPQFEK
- TEST METHOD NOTES: SPR (Biacore T200), IgG from HEK293T supernatant captured by anti-human Fc, ROR1-strep 2.5-20 nM as analyte, 1:1 model, 25 C
PARAMETER: koff (s⁻¹)
Numeric answer only, unit s⁻¹ assumed.

Problem: Report koff for Chimeric mAb R12 (rabbit variable regions, human IgG1/lambda constant regions) (antibody, V domains shown, Full-length IgG1 with human gamma 1 and lambda constant regions; also called parental mAb R12) VH: QEQLVESGGRLVTPGGSLTLSCKASGFDFSAYYMSWVRQAPGKGLEWIATIYPSSGKTYYATWVNGRFTISSDNAQNTVDLQMNSLTAADRATYFCARDSYADDGALFNIWGPGTLVTISS VL: ELVLTQSPSVSAALGSPAKITCTLSSAHKTDTIDWYQQLQGEAPRYLMQVQSDGSYTKRPGVPDRFSGSSSGADRYLIIPSVQADDEADYYCGADYIGGYVFGGGTQLTVT
Solution: 0.000361

Problem: Report koff for huR12_16, humanized from R12 (antibody, human IgG1, V domains shown, Human IgG1 with lambda light chain) VH: QVQLVESGGELVTPGGSLTLSCKASGFDFSAYYMSWVRQAPGKGLEWIASIYPSSGKTYYAAAVQGRFTISADNAKNTVYLQMNSLTAADTATYFCARDSYADDGALFNIWGQGTLVTVSS VL: QLVLTQSPSVSAALGSSAKITCTLSSAHKTDTIDWYQQLAGQAPRYLMYVQSDGSYEKRSGVPDRFSGSSSGADRYLIISSVQADDEADYYCGADYIGGYVFGGGTQLTVG
Solution: 8.79e-05

Problem: Report koff for huR12_7, humanized from R12 (antibody, human IgG1, V domains shown, Human IgG1 with lambda light chain) VH: QVQLVESGGELVQPGGSLTLSCKASGFDFSAYYMSWVRQAPGKGLEWIATIYPSSGKTYYAASVQGRFTISADNAKNTVSLQMNSLTAADTATYFCARDSYADDGALFNIWGKGTLVTVSS VL: QLVLTQSPSVSAALGSSAKITCTLSSAHKTDTIDWYQQLAGQAPRYLMYVQSDGSYEKRSGVPDRFSGSSSGADRYLIISSVQADDEADYYCGADYIGGYVFGGGTQLTVLG
Solution: 0.000116

Problem: Report koff for huR12_11, humanized from R12 (antibody, human IgG1, V domains shown, Human IgG1 with lambda light chain) VH: QVQLVESGGALVQPGGSLTLSCKASGFDFSAYYMSWVRQAPGKGLEWIATIYPSSGKTYYAASVQGRFTISADNAKNTVYLQMNSLTAADTATYFCARDSYADDGALFNIWGQGTLVTVSS VL: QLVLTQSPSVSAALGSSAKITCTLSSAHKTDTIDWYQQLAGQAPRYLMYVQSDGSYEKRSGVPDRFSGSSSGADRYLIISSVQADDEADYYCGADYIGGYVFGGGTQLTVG
Solution: 9.65e-05
